Consider the following binders; for each one, report its FACS binding.
- target-or-system: T1, human CD7 on cells (human, UniProt P09564 26-240)
- T1 construct: whole, on cells; Target of the FACS and cell capture values and of the kill assays on CD7 single positive cells; also called CD7+ cells; Jurkat (CD33-/CD7+)
- T1 sequence (looked up): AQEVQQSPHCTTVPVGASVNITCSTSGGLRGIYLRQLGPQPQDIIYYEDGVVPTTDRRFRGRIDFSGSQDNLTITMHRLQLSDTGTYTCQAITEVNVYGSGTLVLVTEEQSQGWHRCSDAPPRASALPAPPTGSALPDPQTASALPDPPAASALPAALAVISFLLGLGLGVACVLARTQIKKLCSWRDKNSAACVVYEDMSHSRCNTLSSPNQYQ
- test: FACS; cells not named

CD7-PP-8 CD7 binding arm (Fab, V domains shown) VH: QVQLQESGAELVKPGASVKLSCKASGYTFTSYWMHWVKQRPGQGLEWIGKINPSNGKTNYNEKFKSKATLTVDKSSSTAYMQLSSLTSEDSAVYYCARGGVYYDLYYAALDYWGQGTTVTVSS VL: DIELTQSPATLSVTPGDSVSLSCRASQSISNNLHWYQQKSHESPRLLIKSASQSISGIPSRFSGSGSGTDFTLSINSVETEDFGMYFCQQSNSWPYTFGGGTKLEIKR; 96.8
CD7-PP-13 CD7 binding arm (Fab, V domains shown, Heavy chain CDR3 Tyr108Ala; also called 7-PP-13 (mut_17-AA-1)) VH: QVQLQESGAELVKPGASVKLSCKASGYTFTSYWMHWVKQRPGQGLEWIGKINPSNGRTNYNEKFKSKATLTVDKSSSTAYMQLSSLTSEDSAVYYCARGGVYYDLYYAALDYWGQGTTVTVSS VL: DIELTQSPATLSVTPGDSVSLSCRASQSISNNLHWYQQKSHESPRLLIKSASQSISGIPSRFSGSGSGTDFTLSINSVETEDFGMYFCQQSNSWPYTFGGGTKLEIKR; 28.4

Please look at the following binder next.
// query Which measured FACS binding value corresponds to 7-PP-5 (Fab, V domains shown) VH: QVQLQESGAELVKPGASVKLSCKASGYTFTSYWMHWVKQRPGQGLEWIGKINPSNGRTNYNEKFKSKATLTVDKSSSTAYMQLSSLTSEDSAVYYCARGGVYYDGYYYALDYWGQGTTVTVSS VL: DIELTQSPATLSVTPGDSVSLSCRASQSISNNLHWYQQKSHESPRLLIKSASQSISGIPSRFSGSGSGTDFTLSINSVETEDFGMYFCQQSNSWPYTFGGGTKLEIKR ?
// result 268

Reference source: patent US20250269048A1
